peptide exchange yield reference
- target.desc: T1, HLA-B*44:05 (human)
- T1 construct: also called peptide-receptive MHC class I molecule
- experiment.description: UV peptide exchange, anti-b2m ELISA

These recorded examples may help you get a feel for the data.
QEVNISLHY    > 75%
EECGKAFKKF    50 to 75%
AEQQQQQMY    50 to 75%
QELLDFTNW    > 75%
VEDDNYKLSL    50 to 75%

# peptide exchange yield of "EEAQWVRKYF" = 50 to 75%

# peptide exchange yield of "AEAEEAMKRL" = 50 to 75%

# peptide exchange yield of "EEMPEEIHL" = 50 to 75%
